Target: KAT6A Full length enzyme (Homo sapiens (Human), UniProt Q92794)
Sequence (Q92794 other isoform, or with tags, fused parts or gaps): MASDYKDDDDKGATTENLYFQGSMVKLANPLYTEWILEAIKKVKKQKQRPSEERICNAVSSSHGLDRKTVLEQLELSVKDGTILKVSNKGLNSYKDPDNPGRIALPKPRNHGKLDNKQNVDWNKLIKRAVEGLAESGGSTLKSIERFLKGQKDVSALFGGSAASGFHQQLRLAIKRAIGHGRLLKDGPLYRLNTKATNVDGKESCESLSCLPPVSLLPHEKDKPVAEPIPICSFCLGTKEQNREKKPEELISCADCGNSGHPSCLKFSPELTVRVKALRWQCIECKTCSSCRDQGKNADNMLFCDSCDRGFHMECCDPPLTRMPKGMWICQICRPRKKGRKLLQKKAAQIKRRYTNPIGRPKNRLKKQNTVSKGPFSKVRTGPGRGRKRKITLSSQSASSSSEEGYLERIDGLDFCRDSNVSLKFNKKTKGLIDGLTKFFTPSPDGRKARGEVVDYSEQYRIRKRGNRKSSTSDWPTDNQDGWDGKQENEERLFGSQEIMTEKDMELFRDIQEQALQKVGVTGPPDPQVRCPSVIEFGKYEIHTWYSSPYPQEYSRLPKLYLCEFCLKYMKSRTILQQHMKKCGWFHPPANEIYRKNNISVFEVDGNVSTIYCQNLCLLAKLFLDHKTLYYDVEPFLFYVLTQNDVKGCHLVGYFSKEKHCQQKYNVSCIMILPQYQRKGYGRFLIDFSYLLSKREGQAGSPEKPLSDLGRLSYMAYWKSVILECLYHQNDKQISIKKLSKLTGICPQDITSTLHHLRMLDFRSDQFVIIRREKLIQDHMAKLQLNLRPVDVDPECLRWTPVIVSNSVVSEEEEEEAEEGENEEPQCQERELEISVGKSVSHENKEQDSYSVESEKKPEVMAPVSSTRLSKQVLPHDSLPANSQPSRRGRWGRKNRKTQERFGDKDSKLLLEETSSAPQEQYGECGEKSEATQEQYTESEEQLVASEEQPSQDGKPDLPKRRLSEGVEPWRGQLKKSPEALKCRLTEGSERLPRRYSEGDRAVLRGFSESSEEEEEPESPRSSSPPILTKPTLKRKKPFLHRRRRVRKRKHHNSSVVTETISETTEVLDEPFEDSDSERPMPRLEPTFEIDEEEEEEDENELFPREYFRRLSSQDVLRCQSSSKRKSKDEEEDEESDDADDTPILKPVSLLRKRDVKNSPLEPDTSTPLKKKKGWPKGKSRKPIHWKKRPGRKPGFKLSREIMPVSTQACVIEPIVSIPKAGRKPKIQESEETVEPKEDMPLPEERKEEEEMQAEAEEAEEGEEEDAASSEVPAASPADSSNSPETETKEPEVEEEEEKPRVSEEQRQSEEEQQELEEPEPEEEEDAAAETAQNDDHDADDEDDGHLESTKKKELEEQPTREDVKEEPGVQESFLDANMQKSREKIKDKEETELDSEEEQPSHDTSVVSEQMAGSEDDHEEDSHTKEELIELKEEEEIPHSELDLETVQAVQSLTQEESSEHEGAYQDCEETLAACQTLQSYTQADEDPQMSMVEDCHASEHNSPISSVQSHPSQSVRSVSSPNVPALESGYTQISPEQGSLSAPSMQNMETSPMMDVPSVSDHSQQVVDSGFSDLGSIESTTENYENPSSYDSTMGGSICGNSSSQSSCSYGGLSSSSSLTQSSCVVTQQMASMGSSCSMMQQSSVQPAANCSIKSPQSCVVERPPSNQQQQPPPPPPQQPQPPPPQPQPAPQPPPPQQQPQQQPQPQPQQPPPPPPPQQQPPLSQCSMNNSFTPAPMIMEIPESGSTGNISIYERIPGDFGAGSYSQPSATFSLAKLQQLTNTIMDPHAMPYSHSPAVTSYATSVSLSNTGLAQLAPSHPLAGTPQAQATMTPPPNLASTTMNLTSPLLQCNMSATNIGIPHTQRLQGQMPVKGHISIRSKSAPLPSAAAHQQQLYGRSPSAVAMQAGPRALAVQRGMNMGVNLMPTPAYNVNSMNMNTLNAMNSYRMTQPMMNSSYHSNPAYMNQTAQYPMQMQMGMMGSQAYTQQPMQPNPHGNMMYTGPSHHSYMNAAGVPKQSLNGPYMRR
Assay: KAT6A assay (SAMDI-MS acetylation of H3 1-21 peptide)
Format: biochemical
Conditions: Morrison equation fit; replicate number in parentheses; read-out: KAT6A Ki (nM) (replicate number)
Rule for this label: Criterion met means Ki is less than 1 nM; Criterion not met means Ki is at least 1 nM.

{"compound": "COc1cc2c(NS(=O)(=O)c3cc4ccccc4cc3OC)noc2cc1Nc1cc(C2CC2)n[nH]1", "class.label": "Criterion met"}
{"compound": "COC(=O)c1cc(Nc2cc3onc(NS(=O)(=O)c4c(OC)cccc4OC)c3cc2OC)[nH]n1", "class.label": "Criterion not met"}
{"compound": "COc1cc2c(NS(=O)(=O)c3c(OC)cc(C4CCCN(CC(F)F)C4)cc3OC)noc2cc1Nc1cc(C2CC2)n[nH]1 (single isomer, unassigned) [Example 168]", "class.label": "Criterion met"}
{"compound": "COc1cc2c(NS(=O)(=O)c3c(OC)cccc3OC)noc2cc1Nc1cc(C)nn1C(C)C", "class.label": "Criterion not met"}
{"compound": "CCc1cc(Nc2cc3onc(NS(=O)(=O)c4c(OC)cccc4OC)c3c(OC)c2F)[nH]n1", "class.label": "Criterion not met"}
{"compound": "COc1cc2c(NS(=O)(=O)c3c(OC)cc(CN4CCC[C@H](F)C4)cc3OC)noc2cc1Nc1cc(C2CC2)n[nH]1 (single isomer, unassigned)", "class.label": "Criterion not met"}
{"compound": "CCN1CCCCC1c1cc(OC)c(S(=O)(=O)Nc2noc3cc(Nc4cc(C5CC5)n[nH]4)c(OC)cc23)c(OC)c1 (single isomer, unassigned) [Example 173]", "class.label": "Criterion not met"}
{"compound": "COc1cc2c(NS(=O)(=O)c3c(OC)cccc3OC)noc2cc1Nc1cc(CC(C)C)n[nH]1", "class.label": "Criterion not met"}
{"compound": "COc1cc2c(NS(=O)(=O)c3c(OC)cc(C4CCCN(CC(F)(F)F)C4)cc3OC)noc2cc1Nc1cc(C2CC2)n[nH]1 (single isomer, unassigned) [Example 170]", "class.label": "Criterion met"}

====

Biological target: KAT8 Full length enzyme (Homo sapiens (Human))
Sequence (Q9H7Z6 whole entry): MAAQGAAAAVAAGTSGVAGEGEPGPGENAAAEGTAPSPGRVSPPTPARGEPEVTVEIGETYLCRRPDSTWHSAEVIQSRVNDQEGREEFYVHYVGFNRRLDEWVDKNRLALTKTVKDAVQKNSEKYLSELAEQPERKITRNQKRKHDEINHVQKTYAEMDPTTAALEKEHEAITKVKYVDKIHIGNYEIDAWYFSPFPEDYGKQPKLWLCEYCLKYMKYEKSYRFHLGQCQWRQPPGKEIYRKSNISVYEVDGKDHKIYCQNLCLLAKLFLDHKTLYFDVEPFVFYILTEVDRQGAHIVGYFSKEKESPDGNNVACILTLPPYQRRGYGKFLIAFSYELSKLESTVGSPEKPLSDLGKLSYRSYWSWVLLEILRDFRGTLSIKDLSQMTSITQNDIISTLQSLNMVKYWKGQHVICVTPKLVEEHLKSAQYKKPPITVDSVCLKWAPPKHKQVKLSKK
Test: KAT8 assay (SAMDI-MS acetylation of H3 1-21 peptide)
Type: biochemical
Details: Morrison equation fit; replicate number in parentheses; read-out: KAT8 Ki (nM) (replicate number)
Below is a list of entries, each paired with its recorded Ki value.

{"compound.smiles": "CCc1cc(Nc2cc3onc(NS(=O)(=O)c4ccc5c(c4)OCCO5)c3cc2OC)n[nH]1", "Ki": "> 13000 nM"}
{"compound.smiles": "CCc1cc(Nc2cc3onc(NS(=O)(=O)c4ccc(OC)c(F)c4)c3cc2OC)n[nH]1", "Ki": "> 13000 nM"}
{"compound.smiles": "COc1cc2c(NS(=O)(=O)c3c(OC)cccc3OC(C)C)noc2cc1Nc1cc[nH]n1", "Ki": "> 16300 nM"}
{"compound.smiles": "COc1cccc(OC)c1S(=O)(=O)Nc1noc2cc(N[C@H]3CCOC3)cc(OC)c12", "Ki": "> 16300 nM"}

====

Molecular target: UniProt Q92794
Test: KAT6A assay (SAMDI-MS acetylation of H3 1-21 peptide)
Assay type: biochemical
Conditions: Morrison equation fit; replicate number in parentheses; read-out: KAT6A Ki (nM) (replicate number)
observed.property: Ki (nM)

{"molecule": "CCc1cc(Nc2cc3onc(NS(=O)(=O)c4c(OC)cc(-c5ncc(C)cn5)cc4OC)c3cc2OC)[nH]n1 [Example 234]", "target.under.test": "UniProt Q92794", "observed.property": "Ki", "recorded.measurement": 1}
{"molecule": "COc1cccc(OC)c1S(=O)(=O)Nc1noc2cc(Nc3ccccn3)cc(OC)c12 [Example 18]", "target.under.test": "UniProt Q92794", "observed.property": "Ki", "recorded.measurement": 1}
{"molecule": "COc1cc2c(NS(=O)(=O)c3c(OC)cc([C@H]4CCCO4)cc3OC)noc2cc1Nc1cc(C2CC2)n[nH]1 [Example 141]", "target.under.test": "UniProt Q92794", "observed.property": "Ki", "recorded.measurement": 1}

Reference source: patent US20250122183A1
